- Test system: H2052
- test: In vitro cellular proliferation assay ([3H]-thymidine incorporation)
- Type: cell-based, human
- testParameters: Homo sapiens, NCI-H2052, 72 h
- Description: All pediatric sarcoma and neuroblastoma cell lines were obtained from Dr. Lee Helman at NIH. […] Cells were plated at an optimized density for each cell line per well in 96-well microtiter Falcon plates, incubated overnight, and then exposed to a serial dilution of drug. […] The mean IC50 and standard deviation (SD) from multiple tests for each cell line were calculated.
readoutKind: pIC50
Lab note: report pIC50 as minus log10 of the concentration in molar units, number only.

[in] Find pIC50 (H2052) for the entry C[C@@]1(C(=O)Nc2ccc(F)nc2)CCCN1c1nc(Nc2cc(C3CC3)[nH]n2)c2cccn2n1
[out] 5.98
